Where do the numbers come from? From patent US20220089592A1.

Target: IRAK4 (Homo sapiens)
Test: 2-hour 10 μM ATP Biochemical Assay (MesoScale Detection format; IRAK4 phosphorylation of biotin labeled IRAK1 activation loop peptide)
Conditions: IRAK4 MSD BIOCHEMICAL (10 μM ATP) IC50 (μM), 1 nM IRAK4, 2 hours
measurementName: IC50 (µM)

# example entries with known answers
1. CCOc1cc2nc(C3CCSC3)cn2cc1NC(=O)c1cccc(C(F)F)n1 (stereo not drawn) [Example 150]; 0.001
2. CCOc1cc2nc(Cn3ccccc3=O)cn2cc1NC(=O)c1cccc(C(F)F)n1 [Example 87]; 0.004
3. CCOc1cc2nc(CC)cn2cc1NC(=O)c1cc2n(n1)CCC2 [Example 38]; 2.6
4. COc1cc(NC(=O)c2cccc(C(F)F)n2)cn2cc(C3CC3(F)F)nc12 (single isomer, unassigned) [Example 514]; 0.016
5. CCOc1cc2nc(C34CC(C)(C3)C4)cn2cc1NC(=O)c1cccc(C(F)(F)F)n1 [Example 520, 2,2,2-trifluoroacetate]; 0.001

P: CCOc1cc2nc(C3CCOCC3)cn2cc1NC(=O)c1scc(C)c1OC [Example 211]
Q: CCOc1cc2nc([C@H]3C[C@@H](OC)C3)cn2cc1NC(=O)c1cccc(C(F)F)n1 [Example 115]
INPUT: Select one. Lower IC50: P or Q // caller expects the label of the chosen entry
OUTPUT: Q

###

Target: IRAK4 (Homo sapiens)
Assay: 2-hour 1 mM ATP IRAK4 Biochemical assay (as above, but with 100 pM IRAK4 and 1 mM ATP)
Settings: IRAK4 MSD BIOCHEMICAL (1 mM ATP) IC50 (μM), 100 pM IRAK4, 2 hours
measurementName: IC50 (µM)

P: O=C(Nc1cn2cc(C3CCOCC3)nc2cc1OCCF)c1cccc(C(F)F)n1
Q: COc1nc2nc(C34COC(C)(C3)C4)cn2cc1NC(=O)c1cccc(C(F)F)n1 [Example 567, 2,2,2-trifluoroacetate]
R: COc1cccc(C(=O)Nc2cn3cc(C45COC(C)(C4)C5)nc3c(OC)n2)n1 [Example 448, 2,2,2-trifluoroacetate]
S: COc1nc(NC(=O)c2cccc(C(F)F)n2)cn2cc(C34COCC3C4)nc12 (stereo not shown) [Example 550, 2,2,2-trifluoroacetate]
INPUT: Rank items: key IC50, increasing. List the labels, following the order given in the request.
OUTPUT: P, Q, R, S
(P: 0.001 µM, Q: 0.008 µM, R: 0.023 µM, S: 0.055 µM)

###

Biological target: IRAK4 (Homo sapiens, UniProt Q9NWZ3)
Test: 2-hour 10 μM ATP Biochemical Assay (MesoScale Detection format; IRAK4 phosphorylation of biotin labeled IRAK1 activation loop peptide)
Conditions: IRAK4 MSD BIOCHEMICAL (10 μM ATP) IC50 (μM), 1 nM IRAK4, 2 hours
measurementName: IC50 (µM)

1) CC1(COc2cc3nc(C4CC4)cn3cc2NC(=O)c2cccc(C(F)F)n2)COC1; 0.004

a: CCOc1cc2nc(C34CC(F)(C3)C4)cn2cc1NC(=O)c1cccc(C(F)F)n1
b: CCOc1cc2nc(C3CCOCC3)cn2cc1NC(=O)c1cccc(COC)n1
c: CCOc1cc2nc(COc3ccccn3)cn2cc1NC(=O)c1cccc(C(F)F)n1
d: CCOc1cc2nc3c(n2cc1NC(=O)c1cccc(C(F)(F)F)n1)CNCC3
INPUT: Task field, ranking: reported IC50, descending order. Hello, could you send the labels back in the order asked? Thank you.
OUTPUT: d, c, b, a
(d: 0.68 µM, c: 0.006 µM, b: 0.004 µM, a: 0.001 µM)

###

Target: IRAK4 (Homo sapiens, UniProt Q9NWZ3)
Sequence (Q9NWZ3 1-460): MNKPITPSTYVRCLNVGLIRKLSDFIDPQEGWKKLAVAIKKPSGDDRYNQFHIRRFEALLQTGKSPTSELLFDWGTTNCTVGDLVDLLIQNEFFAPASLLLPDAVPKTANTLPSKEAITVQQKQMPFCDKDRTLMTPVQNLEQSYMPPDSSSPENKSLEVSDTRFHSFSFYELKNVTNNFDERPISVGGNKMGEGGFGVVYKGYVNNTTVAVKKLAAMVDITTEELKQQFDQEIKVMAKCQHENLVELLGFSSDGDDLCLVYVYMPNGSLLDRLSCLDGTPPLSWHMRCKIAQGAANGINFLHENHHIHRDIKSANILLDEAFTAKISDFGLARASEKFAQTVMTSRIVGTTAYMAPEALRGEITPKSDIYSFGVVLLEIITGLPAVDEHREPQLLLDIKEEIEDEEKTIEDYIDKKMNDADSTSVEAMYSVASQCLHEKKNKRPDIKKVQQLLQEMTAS
Test: 2-hour 1 mM ATP IRAK4 Biochemical assay (as above, but with 100 pM IRAK4 and 1 mM ATP)
Details: IRAK4 MSD BIOCHEMICAL (1 mM ATP) IC50 (μM), 100 pM IRAK4, 2 hours
measurementName: IC50 (µM)

1: CCOc1cc2nc(C3CCOCC3)cn2cc1NC(=O)c1cccc(OC(C)C)n1 [Example 220]
2: CCOc1c(NC(=O)c2cccc(C(F)F)n2)cn2cc(C3CCOCC3)nc2c1Cl [Example 272]
3: CC1(C)CC(Oc2cc3nc(C4CCOCC4)cn3cc2NC(=O)c2cccc(C(F)F)n2)CO1 (stereo not shown) [Example 184]
INPUT: I'd appreciate it if you could rank the molecules mentioned above by IC50, largest value first. Rank them, then answer with their labels in that order.
OUTPUT: 1, 2, 3
(1: 0.02 µM, 2: 0.003 µM, 3: 0.002 µM)

###

Biological target: IRAK4 (Homo sapiens, UniProt Q9NWZ3)
Sequence (Q9NWZ3 1-460): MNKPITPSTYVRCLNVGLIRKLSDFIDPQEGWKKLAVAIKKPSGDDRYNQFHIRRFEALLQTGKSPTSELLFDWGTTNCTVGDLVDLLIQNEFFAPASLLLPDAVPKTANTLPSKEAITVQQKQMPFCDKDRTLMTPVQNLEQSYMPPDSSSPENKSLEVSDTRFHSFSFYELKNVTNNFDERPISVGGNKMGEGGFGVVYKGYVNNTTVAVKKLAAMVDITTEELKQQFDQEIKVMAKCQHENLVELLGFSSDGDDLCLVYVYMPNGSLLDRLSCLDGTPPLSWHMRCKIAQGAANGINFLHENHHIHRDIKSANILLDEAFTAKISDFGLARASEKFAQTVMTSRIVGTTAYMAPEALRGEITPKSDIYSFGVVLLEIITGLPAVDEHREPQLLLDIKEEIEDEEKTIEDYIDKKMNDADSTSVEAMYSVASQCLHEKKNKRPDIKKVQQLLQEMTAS
Test: 2-hour 1 mM ATP IRAK4 Biochemical assay (as above, but with 100 pM IRAK4 and 1 mM ATP)
Conditions: IRAK4 MSD BIOCHEMICAL (1 mM ATP) IC50 (μM), 100 pM IRAK4, 2 hours
measurementName: IC50 (µM)

1) COc1ccccc1C(=O)Nc1cn2cc(C34COC(C)(C3)C4)nc2nc1OC(C)C; 0.002

I: COc1nc(NC(=O)c2cccc(C(F)F)n2)cn2cc(C3CCCOC3)nc12 (single isomer, unassigned) [Example 297]
II: CCOc1cc2nc(C3CCN(C(C)=O)C3)cn2cc1NC(=O)c1cccc(C(F)(F)F)n1 (stereo not shown)
III: CC(C)Oc1cc2nc(C3CCOCC3)cn2cc1NC(=O)c1cccc2c1OCC2
INPUT: Kindly order the items shown according to IC50, from the highest value down. Answer format: the labels, in the requested order.
OUTPUT: I, III, II
(I: 0.004 µM, III: 0.002 µM, II: 0.001 µM)

###

Target: UniProt:Q9NWZ3
Assay: 2-hour 10 μM ATP Biochemical Assay (MesoScale Detection format; IRAK4 phosphorylation of biotin labeled IRAK1 activation loop peptide)
Conditions: IRAK4 MSD BIOCHEMICAL (10 μM ATP) IC50 (μM), 1 nM IRAK4, 2 hours
measurementName: IC50 (µM)

Sample answers from the record:
1) O=C(Nc1cn2cc(C3CC3)nc2cc1OCc1ccccc1)c1cccc(C(F)F)n1; 0.005
2) O=C(Nc1cn2cc(C3CC3)nc2cc1OCC1CC1)c1cccc(C(F)F)n1; 0.002
3) COc1cc(NC(=O)c2ccn(C)n2)cn2cc(C3CCOCC3)nc12 [Example 412, 2,2,2-trifluoroacetate]; 0.037
4) CCOc1cc2nc(CC)cn2cc1NC(=O)c1ccc2c(c1)COCC2; 2.6
5) CCOc1cc2nc(C3CC34CCOC4)cn2cc1NC(=O)c1cccc(C(F)F)n1 (mixture of isomers); 0.002
6) CCOc1cc2nc(C(=O)N3CCOCC3)cn2cc1NC(=O)c1cccc(C(F)F)n1; 0.35
7) CCOc1cc2nc(CC3CCOC3)cn2cc1NC(=O)c1ccn(C(C)C)n1 (stereo not shown); 0.008
8) CCOc1cc2nc(CCOC)cn2cc1NC(=O)c1cccc(C(F)F)n1; 0.002
9) CCOc1cc2nc(C3CC3)cn2cc1NC(=O)c1cccc(N2CCOCC2)n1; 0.005
10) CCOc1cc2nc(C3CCOCC3)cn2cc1NC(=O)c1cccc(C#N)n1; 0.002

a: CCOc1cc2nc(C3CCOCC3)cn2cc1NC(=O)c1cccc(OCC(F)(F)F)n1
b: CCOc1cc2nc(C(C)(C)C#N)cn2cc1NC(=O)c1cccc(C(F)F)n1
c: CCOc1cc2nc(C34CC(COC)(C3)C4)cn2cc1NC(=O)c1cccc(C(F)(F)F)n1
d: COCCOc1cc2nc(C3CC3)cn2cc1NC(=O)c1cccc(C(F)F)n1
e: CCOc1cc2nc(C3CCOCC3)cn2cc1NC(=O)c1cc(F)n(C)n1
INPUT: // sort entries: IC50, high to low Provide the ranking by listing each label in its place in the requested order.
OUTPUT: a, e, d, b, c
(a: 0.029 µM, e: 0.015 µM, d: 0.006 µM, b: 0.004 µM, c: 0.001 µM)
